assay: chemical genetic growth profiling, strain panel (AID 1159580);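 also: tested at 20 µM; growth read once vehicle control cultures reached saturation at 30 °C; 1 = growth at the plate median or of vehicle wells; lower values mean less growth of the strain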; details: S. cerevisiae deletion strains, growth OD, locus YLR102C, strain apc9, hits give low values
Screen size: about 5,500 compounds; about 2,000 (36%) were called active. About 18% were inconclusive and are not listed. The list shows a part of the results.
Please go through the items and note down their normalized growth.
I'd appreciate a reply containing only the number, no unit.

**Q:** Field request: normalized growth | item: "C=CC1=C(C(=O)O)N2C(=O)[C@@H](NC(=O)/C(=N/O)c3csc(N)n3)[C@H]2SC1"
**A:** 0.997

**Q:** Field request: normalized growth | item: "CCCCOc1ccc(C(=O)CCN2CCCCC2)cc1"
**A:** 0.0845

**Q:** Field request: normalized growth | item: "OC(CCN1CCCCC1)(c1ccccc1)c1ccccc1"
**A:** 1.01

**Q:** Field request: normalized growth | item: "C1CCc2nnnn2CC1"
**A:** 1

**Q:** Field request: normalized growth | item: "Oc1c(Cl)c(Cl)c(Cl)c(Cl)c1Cl"
**A:** 0.739

**Q:** Field request: normalized growth | item: "O=C(O)c1ccccc1OP(=O)(O)O"
**A:** 0.992

**Q:** Field request: normalized growth | item: "C[CH2][Hg][S]c1ccccc1C(=O)O"
**A:** 0.0603

**Q:** Field request: normalized growth | item: "Cc1c(N(C)C)c(=O)n(-c2ccccc2)n1C"
**A:** 0.992

**Q:** Field request: normalized growth | item: "C=CCc1ccc2c(c1)OCO2"
**A:** 0.993

**Q:** Field request: normalized growth | item: CNC1(C)C2CCC(C2)C1(C)C (configuration not stated)
**A:** 0.981

**Q:** Field request: normalized growth | item: CCCCCC(C)N (configuration not stated)
**A:** 0.995

**Q:** Field request: normalized growth | item: OCC(O)Cc1ccc2c(c1)OCO2 (configuration not stated)
**A:** 1

----------
experiment: chemical genetic growth profiling, strain panel (AID 1159580);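 also: tested at 20 µM; growth read once vehicle control cultures reached saturation at 30 °C; 1 = growth at the plate median or of vehicle wells; lower values mean less growth of the strain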; conditions: S. cerevisiae deletion strains, growth OD, locus YDR335W, strain msn5, hits give low values
The whole screen tested about 5,500 compounds, of which about 2,000 (36%) were called active. About 18% were inconclusive and are not listed. This is one part of the list.
Please go through the items and note down their normalized growth.
I'd appreciate a reply containing only the number, no unit.

**Q:** Field request: normalized growth | item: "COc1cccc([C@]2(O)CCCC[C@H]2CN(C)C)c1"
**A:** 0.958

**Q:** Field request: normalized growth | item: COc1ccc2c(c1)C1(C)CCC(=O)CC1CC2 (centres undefined)
**A:** 1.01

**Q:** Field request: normalized growth | item: "COc1ccc2c(c1)[C@@]1(C)CCC(=O)C[C@H]1CC2"
**A:** 0.967

**Q:** Field request: normalized growth | item: "N=c1nc(N2CCCCC2)cc(N)n1O"
**A:** 0.979

----------
assay: chemical genetic growth profiling, strain panel (AID 1159580);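 also: tested at 20 µM; growth read once vehicle control cultures reached saturation at 30 °C; 1 = growth at the plate median or of vehicle wells; lower values mean less growth of the strain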; settings: S. cerevisiae deletion strains, growth OD, locus YDL074C, strain BRE1, hits give low values
Hit rate of the full screen: of about 5,500 compounds, about 2,000 (36%) were called active. Roughly 18% stayed inconclusive and do not appear here. This is one part of the list.
Please go through the items and note down their normalized growth.
I'd appreciate a reply containing only the number, no unit.

**Q:** Field request: normalized growth | item: O[C@H]1C=C2CCN3Cc4cc5c(cc4C(C23)[C@@H]1O)OCO5 (stereo partly drawn)
**A:** 0.485

**Q:** Field request: normalized growth | item: "Cn1cc[nH]c1=S"
**A:** 1.02

**Q:** Field request: normalized growth | item: "NC/C=C/C(=O)O"
**A:** 0.986

**Q:** Field request: normalized growth | item: "COc1ccc(C[C@H]2NC[C@H](O)[C@H]2OC(C)=O)cc1"
**A:** 0.242

**Q:** Field request: normalized growth | item: CCc1ccc(CCOc2ccc(CC3SC(=O)NC3=O)cc2)nc1 (stereo not drawn)
**A:** 0.974

**Q:** Field request: normalized growth | item: CCCCCC(C)N (stereo not drawn)
**A:** 1.02

**Q:** Field request: normalized growth | item: CN1Cc2c(ccc3c2OCO3)C2C(O)Cc3cc4c(cc3C21)OCO4 (stereo not drawn)
**A:** 0.982

**Q:** Field request: normalized growth | item: "O=c1ccc2cc(O)c(O)cc2o1"
**A:** 1

**Q:** Field request: normalized growth | item: CC(=O)O[C@@](C)(CCC=C(C)C)C1CC=C(C)CC1 (stereo partly drawn)
**A:** 1.03

**Q:** Field request: normalized growth | item: "S=C=NCc1ccccc1"
**A:** 0.0981

**Q:** Field request: normalized growth | item: COC1C(O)C(O)C(O)[C@@H](O)C1O (stereo partly drawn)
**A:** 1.06

**Q:** Field request: normalized growth | item: "CC(C)=CCc1c(O)cc2oc(C)cc(=O)c2c1O"
**A:** 0.947

**Q:** Field request: normalized growth | item: "Nc1nc2[nH]c(=O)c(=O)[nH]c2c(=O)[nH]1"
**A:** 1.01
